Listed sequences paired with reported PBM binding z-score
System: FXR:RXRa (NR concentration 270 nM, RXRa partner concentration 90 nM)
Assay: PBM binding z-score (relative to random genomic background probes); higher = stronger binding; sequences stand for … in GC…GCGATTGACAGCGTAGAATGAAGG
endpoint: PBM binding z-score

- seq: "AGTCAAAGTTCATCTAGGTAACATAAGATATGCT"
  endpoint: "PBM binding z-score"
  observed.measurement: 6.39
- seq: "AGAATGAGGTTAAGTTCAGGGAAACAGAATACAT"
  endpoint: "PBM binding z-score"
  observed.measurement: 4.05
- seq: "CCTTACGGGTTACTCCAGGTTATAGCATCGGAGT"
  endpoint: "PBM binding z-score"
  observed.measurement: 2.01
- seq: "TACCCTAGGTCATTGGGCCAGTATAGTACGCATC"
  endpoint: "PBM binding z-score"
  observed.measurement: 4.66
- seq: "CAAACTAGGTCACAAAAGGTCAAAGTCGAATGAC"
  endpoint: "PBM binding z-score"
  observed.measurement: 7.02
- seq: "CGTCAAACTTCAACTAAGGTAACGTAAAGCACGC"
  endpoint: "PBM binding z-score"
  observed.measurement: 0.562
- seq: "CCTACTGGGCCAAAGGTGATTGATTCCAATGCTC"
  endpoint: "PBM binding z-score"
  observed.measurement: -0.0621
- seq: "TCTGCTAGGTCAACGTTGGTCAGCTAATCTGCTA"
  endpoint: "PBM binding z-score"
  observed.measurement: 3.38
- seq: "CAAACTAGTTCAAGAGGTCAAAGTCCGCTTCCCG"
  endpoint: "PBM binding z-score"
  observed.measurement: 5.96
- seq: "CCTACTGGGCCAAAAAGGTCATTGATGCCGATAA"
  endpoint: "PBM binding z-score"
  observed.measurement: 3.46
- seq: "CCGAGGAGGTTACGAGGGGGCATTCAGTGCGAAT"
  endpoint: "PBM binding z-score"
  observed.measurement: 4.41
- seq: "CAAACTAGGTCACAGTGGTCAAAGTCCGTGCGTA"
  endpoint: "PBM binding z-score"
  observed.measurement: 4.01

---

Tested on: RARa homodimer (NR concentration 270 nM)
Experiment: PBM binding z-score (relative to random genomic background probes); higher = stronger binding; sequences stand for … in GC…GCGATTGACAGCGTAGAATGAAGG
Lab note: compare PBM binding z-score against 0.8. Equal or greater, write met. Smaller, write not met.

- seq: "GCTTACGGGTCAAAGGTCATAGCATGAATAGAAT"
  study.target: "RARa homodimer (NR concentration 270 nM)"
  label.value: "met"
- seq: "TTACCAAGGTGAACGGTCGTTGATGCACGCCTTG"
  study.target: "RARa homodimer (NR concentration 270 nM)"
  label.value: "not met"
- seq: "CCTTACGGGTAACGAGGTTATAGCACGACGAGCG"
  study.target: "RARa homodimer (NR concentration 270 nM)"
  label.value: "not met"
- seq: "CCTCGGAGGTCAACAGGAGGTCAGAGCTGCCAGA"
  study.target: "RARa homodimer (NR concentration 270 nM)"
  label.value: "met"
- seq: "AGAATGAGGTTAAACGTAGATCAGGGAAGAAAGT"
  study.target: "RARa homodimer (NR concentration 270 nM)"
  label.value: "not met"
- seq: "AGAATGAGGTCAAGATCAGGGAAACAGAATACAT"
  study.target: "RARa homodimer (NR concentration 270 nM)"
  label.value: "met"
- seq: "AATACGGGGTCACTAGGCCAGAGTAGGTACGAAT"
  study.target: "RARa homodimer (NR concentration 270 nM)"
  label.value: "met"
- seq: "AATACAGGGTCATCGTACGCCAGAGTACGCACAG"
  study.target: "RARa homodimer (NR concentration 270 nM)"
  label.value: "met"
- seq: "ATATGTAGGTTATCGGGTCATACAGTTTGCGCAT"
  study.target: "RARa homodimer (NR concentration 270 nM)"
  label.value: "met"
- seq: "ACTTACGGGTCAACGAGGTCATAGCACGCGTATA"
  study.target: "RARa homodimer (NR concentration 270 nM)"
  label.value: "met"
- seq: "GCTGCTAGTTCAACTGATGGTCAGCTAAAGCTCG"
  study.target: "RARa homodimer (NR concentration 270 nM)"
  label.value: "not met"
- seq: "GCTGCGAGGTCAACTGATGGTCAGCTAAAGCTCG"
  study.target: "RARa homodimer (NR concentration 270 nM)"
  label.value: "not met"
- seq: "AGAATGAGGTTACCAAAGGTCAGGGAAACGCTTG"
  study.target: "RARa homodimer (NR concentration 270 nM)"
  label.value: "met"
- seq: "CGTCCGAGGTCATAGGAGGTCAGTGAAGACAGAT"
  study.target: "RARa homodimer (NR concentration 270 nM)"
  label.value: "met"
- seq: "TTGCCTAGGTCATTGGGCCAGTATAGTACGCATC"
  study.target: "RARa homodimer (NR concentration 270 nM)"
  label.value: "not met"
- seq: "CGTCAAAGGTCATAGGAGGTCAGTGAAGACAGAT"
  study.target: "RARa homodimer (NR concentration 270 nM)"
  label.value: "met"
- seq: "CAAACGAGGTCAAAGGTCAAAGTCGAGCCAACCA"
  study.target: "RARa homodimer (NR concentration 270 nM)"
  label.value: "met"
- seq: "AGAATGAGGTTACTAAAGATCAGGGAAACGCTTG"
  study.target: "RARa homodimer (NR concentration 270 nM)"
  label.value: "not met"
- seq: "CGTCCAAGGTCAAAGGTCATTGAAGAGATGACGG"
  study.target: "RARa homodimer (NR concentration 270 nM)"
  label.value: "met"
- seq: "TCTAGTTGGTCACGGAGGGCACACACGACGGGTA"
  study.target: "RARa homodimer (NR concentration 270 nM)"
  label.value: "not met"
- seq: "CATACAGGGTCGGCTAGGCCAGAGTAGGGACGGC"
  study.target: "RARa homodimer (NR concentration 270 nM)"
  label.value: "not met"
- seq: "TATTCAGGGTCAAAGGCCAGAGTACGAATGTCGA"
  study.target: "RARa homodimer (NR concentration 270 nM)"
  label.value: "met"
- seq: "CCGACGGGGGCAAAGGTTACCATACTCAGTACGA"
  study.target: "RARa homodimer (NR concentration 270 nM)"
  label.value: "not met"
- seq: "CCAACTAGGTCAAAGGACAGTGAAAGGCGACGTA"
  study.target: "RARa homodimer (NR concentration 270 nM)"
  label.value: "met"
- seq: "CGTCCAAGGTCATAGAGGTCAGTGAATGCCGAGT"
  study.target: "RARa homodimer (NR concentration 270 nM)"
  label.value: "met"
- seq: "CTCGAAAGGTCATGCTCAGGTGAGTATACCAAAC"
  study.target: "RARa homodimer (NR concentration 270 nM)"
  label.value: "met"
- seq: "AGAATGAGGTTACCAAAGTTCAGGGAAACGCTTG"
  study.target: "RARa homodimer (NR concentration 270 nM)"
  label.value: "not met"
- seq: "CGTCAAAGTTCAACTGAGGTAACGTAAAGCACGC"
  study.target: "RARa homodimer (NR concentration 270 nM)"
  label.value: "met"
- seq: "CGTCCAAGGTCAAGGTCAATGAAAGAGACTCGAA"
  study.target: "RARa homodimer (NR concentration 270 nM)"
  label.value: "met"
- seq: "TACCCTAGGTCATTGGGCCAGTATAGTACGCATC"
  study.target: "RARa homodimer (NR concentration 270 nM)"
  label.value: "not met"
- seq: "TAGCCTAAGTCATGCGGGCCAGTATAGTGTCGGC"
  study.target: "RARa homodimer (NR concentration 270 nM)"
  label.value: "not met"
- seq: "TAGCCTAGGTCATGCGGCCCAGTATAGTGTCGGC"
  study.target: "RARa homodimer (NR concentration 270 nM)"
  label.value: "not met"
- seq: "TAGCCTAGGTCATGGGCCAGTGTACCACGCGAAC"
  study.target: "RARa homodimer (NR concentration 270 nM)"
  label.value: "not met"
- seq: "CCTTAGGGGTCACGAGGTTATAGCACGACGAGCG"
  study.target: "RARa homodimer (NR concentration 270 nM)"
  label.value: "met"
- seq: "TGTCAAAGGTCAAAGGTAACGTAAGTATCCACAC"
  study.target: "RARa homodimer (NR concentration 270 nM)"
  label.value: "met"
- seq: "CTATGTAGGTTAAGGGAGTCATTCAGTTTGAAAG"
  study.target: "RARa homodimer (NR concentration 270 nM)"
  label.value: "not met"
- seq: "TCTGCTAGGTCATCGATGGTCAGCTAATCTGCTA"
  study.target: "RARa homodimer (NR concentration 270 nM)"
  label.value: "not met"
- seq: "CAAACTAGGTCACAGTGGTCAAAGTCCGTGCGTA"
  study.target: "RARa homodimer (NR concentration 270 nM)"
  label.value: "not met"
- seq: "ATCGAAAGGTCGACGAGGTGAGTAAACACCGTTT"
  study.target: "RARa homodimer (NR concentration 270 nM)"
  label.value: "not met"
- seq: "CCTAGTTGGTCAAGGTCACATACGCTATAGGTAC"
  study.target: "RARa homodimer (NR concentration 270 nM)"
  label.value: "met"
- seq: "AATACAGGGTCATCGTAGGTCAGAGTACGCACAG"
  study.target: "RARa homodimer (NR concentration 270 nM)"
  label.value: "met"
- seq: "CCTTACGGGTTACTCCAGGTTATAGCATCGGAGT"
  study.target: "RARa homodimer (NR concentration 270 nM)"
  label.value: "not met"
- seq: "CCGACTGGGGCAAGGTCACCATAACGCACAGCCA"
  study.target: "RARa homodimer (NR concentration 270 nM)"
  label.value: "not met"
- seq: "GCTGCTAGGTCAACTGATGGTCATCTAAAGCTCG"
  study.target: "RARa homodimer (NR concentration 270 nM)"
  label.value: "not met"
- seq: "AATACAAGGTCATCGTAGGCCAGAGTACGCACAG"
  study.target: "RARa homodimer (NR concentration 270 nM)"
  label.value: "met"
- seq: "CGTCAAAGGTCAACTAAGGTAACGTAAAGCACGC"
  study.target: "RARa homodimer (NR concentration 270 nM)"
  label.value: "met"
- seq: "TCTTGTAGGTCAATAGAGGTTAAGAAAGTGCGCT"
  study.target: "RARa homodimer (NR concentration 270 nM)"
  label.value: "met"
- seq: "CGTCAAAGGTCAAGGTAACGTAACAGAAAGCAGC"
  study.target: "RARa homodimer (NR concentration 270 nM)"
  label.value: "met"
- seq: "TAGCCTAGTTCATTCAGGGGCCAGTATAGAAAGC"
  study.target: "RARa homodimer (NR concentration 270 nM)"
  label.value: "not met"
- seq: "CGTCAAAGGTCAGAGAGGTCAGTGAATGCCGAGT"
  study.target: "RARa homodimer (NR concentration 270 nM)"
  label.value: "met"
- seq: "TAGCCTAGGTCATTCAGGGGCAAGTATAGAAAGC"
  study.target: "RARa homodimer (NR concentration 270 nM)"
  label.value: "not met"
